Where do the numbers come from? From BindingDB's records for patent US20250221979.

Listed here are molecules together with their documented IC50.
- tgt: S-adenosylmethionine synthase isoform type-2 (Homo sapiens, UniProt P31153)
- Sequence (P31153 whole entry, canonical isoform): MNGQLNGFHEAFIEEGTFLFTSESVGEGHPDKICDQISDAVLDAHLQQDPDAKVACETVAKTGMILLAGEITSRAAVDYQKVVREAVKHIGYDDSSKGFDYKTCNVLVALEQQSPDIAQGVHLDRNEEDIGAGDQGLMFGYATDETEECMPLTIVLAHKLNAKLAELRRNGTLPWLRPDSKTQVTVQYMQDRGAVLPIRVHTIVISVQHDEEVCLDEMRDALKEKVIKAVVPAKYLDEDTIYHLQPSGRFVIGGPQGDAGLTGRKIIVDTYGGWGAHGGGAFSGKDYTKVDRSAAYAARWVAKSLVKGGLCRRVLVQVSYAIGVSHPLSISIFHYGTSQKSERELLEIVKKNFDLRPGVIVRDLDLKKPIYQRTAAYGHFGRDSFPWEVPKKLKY
- method: In Vitro Enzymatic Inhibition Activity Assay
A number alone suffices; assume nM.

Examples with answers:
COC(=O)c1c(N)c2ncc(C3CC3)nc2n(-c2ccc(C(C)O)cc2)c1=O (stereo not drawn)
1.19
COC(=O)c1c(N)c2ccc(OC(F)F)cc2n(-c2ccc(N)cc2)c1=O
1.19

Shifting focus to the molecule that follows.
Inquiry: Given COC(=O)c1c(N)c2ccc(OC(F)F)nc2n(-c2ccc([C@@H](C)O)cc2)c1=O , state its recorded IC50.
Reply text: 1.96
